- assay-comment: clinical
- assay-setup: human, in vivo, 800 mg
readout-name: half-life (h)
Give the quantity in h, number only.

Please give the measured half-life for this molecule: CC(C)=CCC/C(C)=C/CC/C(C)=C/CSc1ccccc1C(=O)O 3.67

---

- assay-comment: clinical
- assay-setup: human, in vivo, mean Cmax across dose groups
- Procedure: This trial was a multiple-ascending dose trial in 28-day cycles. The doses used were 100, 200, 400, 600, 800, and 1000 mg. The initial dose (100 mg) was determined in accordance with the International Conference on Harmonisation of Technical Requirements for Registration of Pharmaceuticals for Human Use-S9 guideline. […] Grades were determined according to the National Cancer Institute Common Terminology Criteria for Adverse Events (NCI-CTCAE v.4.0). […]
readout-name: Cmax

Please give the measured Cmax for this molecule: CC(C)=CCC/C(C)=C/CC/C(C)=C/CSc1ccccc1C(=O)O 1340 to 4990 ng/mL

---

- assay-comment: clinical
- assay-setup: human, in vivo, 200 mg
readout-name: half-life (h)
Give the quantity in h, number only.

Please give the measured half-life for this compound: CC(C)=CCC/C(C)=C/CC/C(C)=C/CSc1ccccc1C(=O)O 4.16

---

- assay-comment: clinical
- assay-setup: human, in vivo, 200 mg, AUC12h, mean ± SD
readout-name: AUC(0-t) (ng·h/mL)
Give the quantity in ng·h/mL, number only.

Please give the measured AUC(0-t) for this compound: CC(C)=CCC/C(C)=C/CC/C(C)=C/CSc1ccccc1C(=O)O 10400

---

- assay-comment: clinical
- assay-setup: human, in vivo, 800 mg, tmax, Range
readout-name: Tmax

Please give the measured Tmax for this compound: CC(C)=CCC/C(C)=C/CC/C(C)=C/CSc1ccccc1C(=O)O [Salirasib] 1.42 to 5.98 h

---

- assay-comment: clinical
- assay-setup: human, in vivo, 800 mg, tmax, Median
readout-name: Tmax (h)
Give the quantity in h, number only.

Please give the measured Tmax for this molecule: CC(C)=CCC/C(C)=C/CC/C(C)=C/CSc1ccccc1C(=O)O 2.98

---

- assay-comment: clinical
- assay-setup: human, in vivo, 200 mg, Cmax, mean ± SD
readout-name: Cmax (ng/mL)
Give the quantity in ng/mL, number only.

Please give the measured Cmax for this compound: CC(C)=CCC/C(C)=C/CC/C(C)=C/CSc1ccccc1C(=O)O [Salirasib] 2610

---

- assay-comment: clinical
- assay-setup: human, in vivo, 100 mg, Cmax, mean ± SD
- Experimental: This trial was a multiple-ascending dose trial in 28-day cycles. The doses used were 100, 200, 400, 600, 800, and 1000 mg. The initial dose (100 mg) was determined in accordance with the International Conference on Harmonisation of Technical Requirements for Registration of Pharmaceuticals for Human Use-S9 guideline. […] Grades were determined according to the National Cancer Institute Common Terminology Criteria for Adverse Events (NCI-CTCAE v.4.0). […]
readout-name: Cmax (ng/mL)
Give the quantity in ng/mL, number only.

Please give the measured Cmax for this compound: CC(C)=CCC/C(C)=C/CC/C(C)=C/CSc1ccccc1C(=O)O [Salirasib] 1340

---

- assay-comment: clinical
- assay-setup: human, in vivo, 400 mg
readout-name: half-life

Please give the measured half-life for this compound: CC(C)=CCC/C(C)=C/CC/C(C)=C/CSc1ccccc1C(=O)O 4 h

---

- assay-comment: clinical
- assay-setup: human, in vivo, 600 mg
readout-name: AUC(0-inf) (ng·h/mL)
Give the quantity in ng·h/mL, number only.

Please give the measured AUC(0-inf) for this molecule: CC(C)=CCC/C(C)=C/CC/C(C)=C/CSc1ccccc1C(=O)O 18500

---

- assay-comment: clinical
- assay-setup: human, in vivo, 600 mg, AUC12h, mean ± SD
readout-name: AUC(0-t) (ng·h/mL)
Give the quantity in ng·h/mL, number only.

Please give the measured AUC(0-t) for this compound: CC(C)=CCC/C(C)=C/CC/C(C)=C/CSc1ccccc1C(=O)O [Salirasib] 16900

---

- assay-comment: clinical
- assay-setup: human, in vivo, 1000 mg, tmax, Range
readout-name: Tmax

Please give the measured Tmax for this compound: CC(C)=CCC/C(C)=C/CC/C(C)=C/CSc1ccccc1C(=O)O 2 to 3.97 h

---

- assay-comment: clinical
- assay-setup: human, in vivo, 100 mg
readout-name: half-life (h)
Give the quantity in h, number only.

Please give the measured half-life for this molecule: CC(C)=CCC/C(C)=C/CC/C(C)=C/CSc1ccccc1C(=O)O 3.81

---

- assay-comment: clinical
- assay-setup: human, in vivo, 600 mg, Cmax, mean ± SD
- Method: This trial was a multiple-ascending dose trial in 28-day cycles. The doses used were 100, 200, 400, 600, 800, and 1000 mg. The initial dose (100 mg) was determined in accordance with the International Conference on Harmonisation of Technical Requirements for Registration of Pharmaceuticals for Human Use-S9 guideline. […] Grades were determined according to the National Cancer Institute Common Terminology Criteria for Adverse Events (NCI-CTCAE v.4.0). […]
readout-name: Cmax (ng/mL)
Give the quantity in ng/mL, number only.

Please give the measured Cmax for this molecule: CC(C)=CCC/C(C)=C/CC/C(C)=C/CSc1ccccc1C(=O)O 4870

---

- assay-comment: clinical
- assay-setup: human, in vivo, 400 mg
readout-name: AUC(0-inf) (ng·h/mL)
Give the quantity in ng·h/mL, number only.

Please give the measured AUC(0-inf) for this compound: CC(C)=CCC/C(C)=C/CC/C(C)=C/CSc1ccccc1C(=O)O 20300

---

- assay-comment: clinical
- assay-setup: human, in vivo, 1000 mg, Cmax, mean ± SD
readout-name: Cmax (ng/mL)
Give the quantity in ng/mL, number only.

Please give the measured Cmax for this molecule: CC(C)=CCC/C(C)=C/CC/C(C)=C/CSc1ccccc1C(=O)O 2630

---

- assay-comment: clinical
- assay-setup: human, in vivo, 800 mg, Cmax, mean ± SD
readout-name: Cmax

Please give the measured Cmax for this compound: CC(C)=CCC/C(C)=C/CC/C(C)=C/CSc1ccccc1C(=O)O 3840 ng/mL

---

- assay-comment: clinical
- assay-setup: human, in vivo, 400 mg, AUC12h, mean ± SD
readout-name: AUC(0-t) (ng·h/mL)
Give the quantity in ng·h/mL, number only.

Please give the measured AUC(0-t) for this compound: CC(C)=CCC/C(C)=C/CC/C(C)=C/CSc1ccccc1C(=O)O [Salirasib] 18000

---

- assay-comment: clinical
- assay-setup: human, in vivo, 800 mg
readout-name: AUC(0-inf) (ng·h/mL)
Give the quantity in ng·h/mL, number only.

Please give the measured AUC(0-inf) for this molecule: CC(C)=CCC/C(C)=C/CC/C(C)=C/CSc1ccccc1C(=O)O 26600

---

- assay-comment: clinical
- assay-setup: human, in vivo, 100 mg
readout-name: AUC(0-inf) (ng·h/mL)
Give the quantity in ng·h/mL, number only.

Please give the measured AUC(0-inf) for this compound: CC(C)=CCC/C(C)=C/CC/C(C)=C/CSc1ccccc1C(=O)O 4970

---

- assay-comment: clinical
- assay-setup: human, in vivo, 1000 mg, AUC12h, mean ± SD
readout-name: AUC(0-t) (ng·h/mL)
Give the quantity in ng·h/mL, number only.

Please give the measured AUC(0-t) for this molecule: CC(C)=CCC/C(C)=C/CC/C(C)=C/CSc1ccccc1C(=O)O 22400
